# System: Escherichia coli TOP10;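 further: peptides expressed intracellularly from a pBAD plasmid library in pooled LB shake-flask culture, induced with 0.3% L-arabinose, DNA abundance read by NGS, three biological replicates, DESeq2 with apeglm shrinkage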
# measurement.description: shrunken log2 fold change of peptide-encoding DNA abundance (4.5 h post-induction vs induction); higher = less antimicrobial activity (less host growth inhibition)
# condition.notes: time post-induction: 4.5 h; library: site-saturation at positions 5, 18, 19, 20
Cut-off 0.006 on shrunken log2 fold change, inclusive. At or above means y; below means n.

> print(dat)
             sequence.data         subject.of.test  category.label
1  RRIRDRPPRLPRPRPRPAHYPRP  Escherichia coli TOP10               y
2  RRIRIRPPRLPRPRPRPETCPRP  Escherichia coli TOP10               y
3  RRIRHRPPRLPRPRPRPPDTPRP  Escherichia coli TOP10               n
4  RRIRHRPPRLPRPRPRPPLQPRP  Escherichia coli TOP10               n
5  RRIRARPPRLPRPRPRPQYTPRP  Escherichia coli TOP10               n
6  RRIRLRPPRLPRPRPRPRVWPRP  Escherichia coli TOP10               y
7  RRIRLRPPRLPRPRPRPMGEPRP  Escherichia coli TOP10               y
8  RRIRPRPPRLPRPRPRPTVRPRP  Escherichia coli TOP10               y

The values you see were collected from the supplement of paper PMC9112550.
